Provenance of the data: ChEMBL document CHEMBL2218924

Target: Mitogen-activated protein kinase 13 (Homo sapiens)
Sequence (whole entry): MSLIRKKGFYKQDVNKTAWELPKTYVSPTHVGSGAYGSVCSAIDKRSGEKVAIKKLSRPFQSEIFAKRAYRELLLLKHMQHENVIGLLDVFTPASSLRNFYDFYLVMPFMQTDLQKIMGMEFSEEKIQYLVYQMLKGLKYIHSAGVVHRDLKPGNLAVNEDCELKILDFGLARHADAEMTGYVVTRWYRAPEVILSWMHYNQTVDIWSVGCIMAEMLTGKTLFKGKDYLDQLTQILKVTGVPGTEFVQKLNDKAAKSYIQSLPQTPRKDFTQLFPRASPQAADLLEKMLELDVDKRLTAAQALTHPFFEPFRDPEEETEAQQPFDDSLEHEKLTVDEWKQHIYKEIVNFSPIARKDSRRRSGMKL
Details: at 10 µM
measured_endpoint: residual activity

O=C1Nc2ccc3ncsc3c2/C1=C/c1c[nH]cn1	24%
COc1cc2ncnc(Nc3ccc(OCc4ccccc4)cc3)c2cc1OC	109%
O=c1[nH]c2ccccc2n1C1CCN(Cc2ccc(-c3nc4cc5[nH]cnc5cc4nc3-c3ccccc3)cc2)CC1	91%
O=C1c2ccccc2-c2nc3nnnn3nc21	101%
O=[N+]([O-])/C=C/c1ccc2c(c1)OCO2	98%
CCn1cnc2c(Nc3cccc(Cl)c3)nc(N[C@@H]3CCCC[C@@H]3N)nc21	81%
